Experiment: Plasma and brain pharmacokinetics/toxicokinetics in rats
Type: in vivo
Conditions: both sexes, Sprague Dawley SPF, rat, plasma, po, 36 mg/kg, rats po 36 mg/kg single, 28-day tox study
quantity_measured: AUC(0-t) (ng·h/mL)
Answers are plain numbers, in ng·h/mL.

Asked: Query (compound): COc1ccc(CO[C@H]2CC[C@@]3(C)C(=CC[C@H]4[C@@H]5CC[C@H](C(C)=O)[C@@]5(C)CC[C@@H]43)C2)cc1 [AEF0117, 3β-(4-methoxybenzyloxy)pregn-5-en-20-one] ; field requested: AUC(0-t)
Given back: 16500

====

Test: 91-d repeated oral toxicity study in rats (GLP)
Type: in vivo
Details: both sexes, Sprague Dawley SPF, rat, in vivo, oral; rats, 91-day, highest dose tested
quantity_measured: NOAEL at 91 day (mg/kg/day)
Numbers only, in mg/kg/day.

Asked: Returns the measured NOAEL at 91 day for the input compound. Input: COc1ccc(CO[C@H]2CC[C@@]3(C)C(=CC[C@H]4[C@@H]5CC[C@H](C(C)=O)[C@@]5(C)CC[C@@H]43)C2)cc1 [AEF0117, 3β-(4-methoxybenzyloxy)pregn-5-en-20-one]
Given back: 65
